The values you see were collected from the supplement of paper PMC11908140.

B1: library; numbered along this chain (parent)
chain: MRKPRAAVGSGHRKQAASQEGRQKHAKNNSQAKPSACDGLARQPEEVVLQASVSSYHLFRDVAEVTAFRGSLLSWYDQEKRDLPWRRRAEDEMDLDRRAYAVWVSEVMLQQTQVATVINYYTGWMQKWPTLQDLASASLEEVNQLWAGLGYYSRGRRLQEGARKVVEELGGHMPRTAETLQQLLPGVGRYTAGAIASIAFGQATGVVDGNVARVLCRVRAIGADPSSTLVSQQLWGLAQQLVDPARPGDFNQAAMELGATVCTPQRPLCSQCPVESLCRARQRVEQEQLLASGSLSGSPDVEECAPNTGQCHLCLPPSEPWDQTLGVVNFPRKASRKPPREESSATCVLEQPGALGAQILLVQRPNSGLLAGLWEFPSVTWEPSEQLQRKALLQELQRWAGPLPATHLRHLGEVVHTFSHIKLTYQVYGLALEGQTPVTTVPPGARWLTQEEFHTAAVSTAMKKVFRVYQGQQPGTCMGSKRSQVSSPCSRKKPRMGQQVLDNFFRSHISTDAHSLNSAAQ

variants of: B1; test: 8OG:A repair function score (normalized; synonymous = 0, nonsense = -1) (normalized log-likelihood score); higher = more repair activity (WT-like); settings: with 8OG:A DNA repair reporter (GFP) in HEK-293 MUTYH KO cells;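 note: cells sorted at 72 h after reporter transfection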
Recorded 8OG:A repair function score by entry

• R189P = 0.136
• R336G = -0.112
• A67N = -0.0206
• P494I = 0.0172
• Q113D = -0.327

Exam item: Specify measured 8OG:A repair function score for `A135W` .
Marked response: -0.338

Exam item: Specify measured 8OG:A repair function score for `Q286L` .
Marked response: -0.0175

Exam item: Specify measured 8OG:A repair function score for `Q499W` .
Marked response: -0.0171

Exam item: Specify measured 8OG:A repair function score for `K127C` .
Marked response: 0.0938

Exam item: Specify measured 8OG:A repair function score for `N119Y` .
Marked response: -0.361

Exam item: Specify measured 8OG:A repair function score for `M108D` .
Marked response: -0.793
